Can you tell me GI50 for the items I'm about to list?
system: SF-268; assay: NCI tumour cell line growth inhibition, 48 h
Activity calls are given as the source filed them. Cut-off read from the data, not from the text of the source: active = GI50 up to about 1.1 µM and inactive = higher.

INPUT: Return reported GI50. Input molecule: COc1cc(O)c(C(=O)C2Cc3ccccc32)c(OC)c1 (stereo not drawn)
OUTPUT: 67.8 µM (inactive)

INPUT: Name the recorded GI50 of the item O=C1CC(c2ccccc2)NCN1 (stereo not drawn) in your answer.
OUTPUT: > 100 µM (inactive)

INPUT: Give the reported GI50 for this molecule. `c1cc(C[S+]2CCCC2)ccc1C[S+]1CCCC1`
OUTPUT: > 100 µM (inactive)

###

test system: U-251; assay: NCI tumour cell line growth inhibition, 48 h
The source made the active and inactive calls. Cut-off read from the data, not from the text of the source: active = GI50 up to about 1.1 µM and inactive = higher.
Could you please pick one outcome from this set? active, inactive

INPUT: Could you check what this test reported for `Cc1c(C(=O)NNc2ccccc2)n2c(S)nnc2c2ccccc12` ?
OUTPUT: inactive

INPUT: Outcome logged for CC(ON(C(c1ccccc1)C(C)C)C(C)(C)C)c1ccccc1 (stereo not given) in this assay:
OUTPUT: inactive

INPUT: What was the test verdict on `c1cc(C[S+]2CCCC2)ccc1C[S+]1CCCC1` ?
OUTPUT: inactive

INPUT: How was `Cc1oc2nc(N(C)C)nc(NN)c2c1C` classified in this test?
OUTPUT: inactive

INPUT: Tell me the recorded outcome of this test for CC(=O)OC1C(C)OC(OC(=O)C2CCC3C(C2)OC2(CC(OC(=O)/C=C/c4ccccc4)C(C)CO2)C32CO2)C(OC2OC(C)C(O)C(OC(C)=O)C2O)C1O (stereo not given) .
OUTPUT: active

INPUT: Called result for CCOC(=O)CCC(C(=O)OCC)n1nnc2ccc(Nc3c(C)[n+]([O-])c4cc(F)c(OCC)cc4[n+]3[O-])cc21 (stereo not given)
OUTPUT: inactive

INPUT: Recorded test call requested for `COc1cc(N2C(=O)C(=O)C3(CCCCC3)C2=O)cc(OC)c1OC`
OUTPUT: inactive

INPUT: What did this assay record as the result for `Cc1ncc(CCl)c2c1OC(C)(C)OC2` ?
OUTPUT: inactive

INPUT: What did the test return for C/C=C\C(CC(=O)NCCC1CN(S(=O)(=O)C(F)(F)F)c2ccccc21)CC(=O)OC (stereo not given) ?
OUTPUT: inactive

INPUT: Dear all, I need the recorded test outcome for `O=C1NC(N2CCOCC2)=N/C1=C\c1ccccc1` , thank you.
OUTPUT: inactive
